# Tgt: human TRPM8 (Homo sapiens, UniProt Q7Z2W7)
# Construct: expressed in transfected cells; host or cells: CHO (p658 mammalian expression vector)
# Sequence (Q7Z2W7 whole entry): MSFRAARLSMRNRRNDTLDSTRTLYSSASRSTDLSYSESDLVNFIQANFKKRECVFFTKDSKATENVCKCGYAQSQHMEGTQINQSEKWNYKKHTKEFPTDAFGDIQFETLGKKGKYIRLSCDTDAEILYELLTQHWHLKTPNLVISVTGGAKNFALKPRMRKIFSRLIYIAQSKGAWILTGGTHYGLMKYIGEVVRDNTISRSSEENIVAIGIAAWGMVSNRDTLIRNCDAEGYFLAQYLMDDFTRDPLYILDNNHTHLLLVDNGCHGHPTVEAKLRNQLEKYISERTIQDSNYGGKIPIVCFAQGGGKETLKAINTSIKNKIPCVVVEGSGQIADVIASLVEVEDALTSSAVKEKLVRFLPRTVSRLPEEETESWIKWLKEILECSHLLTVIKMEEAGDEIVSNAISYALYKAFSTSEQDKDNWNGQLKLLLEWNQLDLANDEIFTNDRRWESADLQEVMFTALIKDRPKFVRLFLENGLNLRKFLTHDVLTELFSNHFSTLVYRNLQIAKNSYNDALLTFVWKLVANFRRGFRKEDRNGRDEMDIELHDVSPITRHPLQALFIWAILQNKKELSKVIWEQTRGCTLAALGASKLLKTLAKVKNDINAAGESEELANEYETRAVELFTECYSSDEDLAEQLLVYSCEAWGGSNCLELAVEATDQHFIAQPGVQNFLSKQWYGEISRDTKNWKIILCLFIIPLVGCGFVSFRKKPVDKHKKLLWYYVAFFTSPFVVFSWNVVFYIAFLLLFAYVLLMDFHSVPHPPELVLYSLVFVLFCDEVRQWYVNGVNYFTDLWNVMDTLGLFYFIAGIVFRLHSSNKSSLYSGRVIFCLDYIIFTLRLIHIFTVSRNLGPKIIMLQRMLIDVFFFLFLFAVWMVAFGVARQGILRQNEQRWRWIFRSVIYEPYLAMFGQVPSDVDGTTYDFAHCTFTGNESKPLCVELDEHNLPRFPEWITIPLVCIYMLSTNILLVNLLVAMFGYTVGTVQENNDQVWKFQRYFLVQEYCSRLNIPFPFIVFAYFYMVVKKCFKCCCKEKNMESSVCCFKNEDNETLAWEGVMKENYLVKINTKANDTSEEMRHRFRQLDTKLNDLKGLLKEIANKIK
# Assay Protocol: In vitro human TRPM8 automated patch-clamp assay (SyncroPatch 384PE, CHO cells)
# Type: cell-based
# Setup Conditions: CHO cells expressing human TRPM8, 28° C.
pEC50: −log10 of the molar value. Counter-ions that a name gives are not always drawn.
Recorded Metric: pEC50

Use these answered entries as a reference point.
CC(C)[C@@H]1CC[C@@H](C)C[C@@]1(O)C(=O)NCC(=O)c1ccccc1 [Example 2]; 6.35
COc1cc(CO)ccc1OC(=O)CNC(=O)[C@]1(O)C[C@H](C)CC[C@H]1C(C)C [Example 79]; 5.26
CC(C)[C@@H]1CC[C@@H](C)C[C@@]1(O)C(=O)NCCc1ccccc1OCC(O)CO (some centres unmarked) [Example 9]; 5.62

a = CC(C)[C@@H]1CC[C@@H](C)C[C@@]1(O)C(=O)NCC(C(=O)OCCN)c1ccccc1 (some centres unmarked) [Example 71, hydrochloride]
b = COC(=O)COc1ccccc1CCNC(=O)[C@]1(O)C[C@H](C)CC[C@H]1C(C)C [Example 61]
c = COC(=O)[C@@H](N)Cc1cccc(CCNC(=O)[C@]2(O)C[C@H](C)CC[C@H]2C(C)C)c1 [Example 20]
Thanks in advance: please rank these 3 entries by pEC50, highest to lowest. Sort the labels as requested; that list is your answer.
a, c, b

====

# Tgt: pig TRPM8 (Sus scrofa, UniProt F1SM15)
# Construct: expressed in transfected cells; host or cells: CHO (pcDNA5/FRT/TO vector; hygromycin B and blasticidin selection)
# Sequence (F1SM15 1-1104): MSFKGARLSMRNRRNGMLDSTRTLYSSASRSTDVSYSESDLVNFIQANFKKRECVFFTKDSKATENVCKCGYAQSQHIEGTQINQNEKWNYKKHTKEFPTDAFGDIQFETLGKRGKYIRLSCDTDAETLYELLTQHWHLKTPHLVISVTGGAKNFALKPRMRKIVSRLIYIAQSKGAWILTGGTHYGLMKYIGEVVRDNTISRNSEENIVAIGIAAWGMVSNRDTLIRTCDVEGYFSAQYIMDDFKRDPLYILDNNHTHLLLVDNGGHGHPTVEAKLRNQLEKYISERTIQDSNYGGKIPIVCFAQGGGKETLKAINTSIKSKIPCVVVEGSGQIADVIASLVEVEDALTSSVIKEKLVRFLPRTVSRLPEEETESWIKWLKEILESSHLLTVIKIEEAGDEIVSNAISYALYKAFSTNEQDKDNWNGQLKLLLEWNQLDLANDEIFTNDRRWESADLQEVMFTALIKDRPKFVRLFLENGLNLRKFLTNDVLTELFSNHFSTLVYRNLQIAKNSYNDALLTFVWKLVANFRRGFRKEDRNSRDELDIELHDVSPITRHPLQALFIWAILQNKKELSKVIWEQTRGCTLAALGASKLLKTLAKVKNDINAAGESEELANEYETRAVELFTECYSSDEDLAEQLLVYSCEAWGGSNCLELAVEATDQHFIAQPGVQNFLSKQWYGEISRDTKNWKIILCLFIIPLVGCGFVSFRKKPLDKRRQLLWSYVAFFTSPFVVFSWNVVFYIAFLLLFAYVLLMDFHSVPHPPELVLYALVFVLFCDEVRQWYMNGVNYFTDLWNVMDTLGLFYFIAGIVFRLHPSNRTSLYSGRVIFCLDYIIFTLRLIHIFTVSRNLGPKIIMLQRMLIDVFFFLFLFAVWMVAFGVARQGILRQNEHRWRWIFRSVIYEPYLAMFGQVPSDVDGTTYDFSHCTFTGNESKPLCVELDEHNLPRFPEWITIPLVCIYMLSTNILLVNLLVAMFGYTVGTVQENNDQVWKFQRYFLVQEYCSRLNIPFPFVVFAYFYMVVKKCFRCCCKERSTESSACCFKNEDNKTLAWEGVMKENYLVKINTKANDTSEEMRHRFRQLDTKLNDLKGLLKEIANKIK
# Assay Protocol: In vitro pig TRPM8 fluorescence calcium flux assay (recombinant CHO cells, Fluo4-AM, FDSS6000)
# Assay type: cell-based
# Setup Conditions: recombinant CHO cells expressing pig TRPM8; menthol-related EC50, normalized to 100 μM menthol
pEC50: −log10 of the molar value.
Recorded Metric: pEC50

COc1ccc(C(=O)CNC(=O)[C@]2(O)C[C@H](C)CC[C@H]2C(C)C)c(OC)c1 [Example 99]; 7.00
CC(C)[C@@H]1CC[C@@H](C)C[C@@]1(O)C(=O)NCCc1cccc(C(=O)OCCO)c1 [Example 21]; 7.25
Cc1cccc(CCNC(=O)[C@]2(O)C[C@H](C)CC[C@H]2C(C)C)c1 [Example 58]; 8.66

1 = COc1ccccc1C(F)(F)CNC(=O)[C@]1(O)C[C@H](C)CC[C@H]1C(C)C [Example 186]
2 = CC(C)[C@@H]1CC[C@@H](C)C[C@@]1(O)C(=O)NCC(=O)c1ccccc1F [Example 85]
3 = CC(C)[C@@H]1CC[C@@H](C)C[C@@]1(O)C(=O)NCCOc1ccccc1 [Example 120]
4 = CC(C)[C@@H]1CC[C@@H](C)C[C@@]1(O)C(=O)NCCc1ccccc1CO [Example 14]
Rank ascending by pEC50. Reply: labels, ordered per the request.
1, 3, 4, 2
(1: 7.58, 3: 7.86, 4: 8.17, 2: 8.62)

1 = CC(C)[C@@H]1CC[C@@H](C)C[C@@]1(O)C(=O)NCC1(O)CCOc2ccccc21 (stereo partly shown) [Example 96]
2 = CC(C)[C@@H]1CC[C@@H](C)C[C@@]1(O)C(=O)NC[C@@H](O)c1ccccc1 [Example 1]
3 = CC(C)[C@@H]1CC[C@@H](C)C[C@@]1(O)C(=O)N[C@H](CO)Cc1ccccc1 [Example 146]
4 = CC(C)[C@@H]1CC[C@@H](C)C[C@@]1(O)C(=O)NCC1(c2ccccc2)COC1 [Example 31]
Order the 4 compounds from highest to lowest pEC50. Response format: the labels, sorted as the prompt asks.
2, 4, 3, 1

1 = CC(C)[C@@H]1CC[C@@H](C)C[C@@]1(O)C(=O)NCC(=O)c1ccc(Cl)cc1 [Example 134]
2 = COC(=O)COc1ccccc1C(O)CNC(=O)[C@]1(O)C[C@H](C)CC[C@H]1C(C)C (stereo partly shown) [Example 36]
3 = CC(C)[C@@H]1CC[C@@H](C)C[C@@]1(O)C(=O)NCC(=O)Nc1ccc(O)cc1 [Example 88]
Sort by pEC50, descending. Answer format: the labels, in the requested order.
1, 3, 2

1 = CC(C)[C@@H]1CC[C@@H](C)C[C@@]1(O)C(=O)NCC(CO)c1ccccc1 (single isomer, unassigned) [Example 90]
2 = CC(C)[C@@H]1CC[C@@H](C)C[C@@]1(O)C(=O)NCCOC(=O)c1ccccc1 [Example 111]
Pick one: 1 or 2 . Which has the bigger pEC50 number? API: response body contains the label of the selected item.
1
